Recorded values, source patent US20160102129A1.

Study system: human GLP-1 receptor (human, UniProt P43220 24-463)
Test details: cell-based or functional assay
*1 amine or outer side, *2 acyl side, *3 side chain or, on linkers, in order; H or OH if unused. Where no end group is shown, it is not given here. Side-chain parts run from the residue outwards. [ ]: non-standard residue; d: D form. The star is where a group is joined. C18 diacid = O=C(O)CCCCCCCCCCCCCCCCC(=O)*; γGlu = O=C(O)[C@H](CCC(=O)[*:2])N[*:1]; Desaminohistidyl = O=C(CCc1c[nH]cn1)*; Aib = CC(C)(N)C(=O)O
Reported metric: EC50 GLP-1R [pM], CRE luciferase reporter gene assay (pM)
Return type: number; implicit unit pM.

| Binder | Recorded value |
| --- | --- |
| [Desaminohistidyl]AHGTFTSDVSKYLEGRAAREFIAWLLK([Ado-Ado-γGlu-γGlu-γGlu-C18 diacid])T-NH2 | 8 |

Turning now to a further binder:
Ask: Item under review: [Desaminohistidyl][Aib]HGTFTSDVSKYLEARAAREFIAWLLKGGG (not fully specified (residue 28); printed as Nε34-[(4S)-4-carboxy-4-[[2-[2-[2-[[2-[2-[2-[[(4S)-4-carboxy-4-[[(4S)-4-carboxy-4-(17-carboxyheptadecanoylamino)butanoyl]amino]butanoyl]amino]ethoxy]ethoxy]acetyl]amino]ethoxy]ethoxy]acetyl]amino]butanoyl]-[Imp7,Aib8,His9,Lys18,Ala22,Arg23,Arg26,Leu33,Gly36]-GLP-1-(7-37)-peptide) . Reported EC50 GLP-1R [pM], CRE luciferase reporter gene assay?
Reply: 2.2
